Test system: OVCAR-3 ovarian cancer
procedure_text: Cytotoxicity, OVCAR-3
settings: read-out: cytotoxicity GI50, OVCAR-3; 50% growth inhibition; average of two determinations; 8640 min
measured_property: GI50

Example entries and their recorded answers appear below.
CCCc1ccc(N=Cc2cc(OC)c(OC)c(OC)c2)cc1 [108g] : > 100 µM
COc1ccc(N=Cc2cc(OC)c(OC)c(OC)c2)cc1 [108c] : > 100 µM
CCc1ccc(N=Cc2cc(OC)c(OC)c(OC)c2)cc1 [108b] : > 100 µM
COc1cc(C=Nc2ccc(C(C)C)cc2)cc(OC)c1OC [108f] : > 100 µM

In the following, a different compound is considered.
(Q) Specify measured GI50 for CCOc1ccc(N=Cc2cc(OC)c(OC)c(OC)c2)cc1 [108d] .
(A) > 100 µM
